Each recorded value in this set is attributed to paper PMC7395068.

tested on: HepaRG spheroids; test: Combined HCI (HCS) and cellular ATP 3D assay in HepaRG spheroids; details: HepaRG; HCS endpoints; cut-off <100x Avg Cmaxu
OBSERVED_PROPERTY: HepaRG <100x Avg Cmaxu HCS

• CN(C)C(=O)Oc1cccc([N+](C)(C)C)c1 [neostigmine] = -ve
• CC[C@H]1OC(=O)[C@H](C)[C@@H](O[C@H]2C[C@@](C)(OC)[C@@H](O)[C@H](C)O2)[C@H](C)[C@@H](O[C@@H]2O[C@H](C)C[C@H](N(C)C)[C@H]2O)[C@](C)(O)C[C@@H](C)C(=O)[C@H](C)[C@@H](O)[C@]1(C)O [erythromycin] = +ve (<100x Avg Cmaxu)
• COc1ccccc1Oc1c(NS(=O)(=O)c2ccc(C(C)(C)C)cc2)nc(-c2ncccn2)nc1OCCO [bosentan] = -ve
• Clc1ccccc1CN1CCc2sccc2C1 [ticlopidine] = -ve
• Cc1cc2c(cc1CC(=O)c1sccc1S(=O)(=O)Nc1onc(C)c1Cl)OCO2 [sitaxsentan] = +ve (<100x Avg Cmaxu)
• CN(C)CCC(c1ccc(Cl)cc1)c1ccccn1 (stereo not shown) [chlorpheniramine] = -ve
• [H]/N=C(/N)N[C@H]1[C@H](O)[C@@H](O)[C@H](O[C@@H]2O[C@@H](C)[C@](O)(C=O)[C@H]2O[C@@H]2O[C@@H](CO)[C@H](O)[C@@H](O)[C@@H]2NC)[C@@H](N/C(N)=N\[H])[C@@H]1O [streptomycin, reference compound] = +ve (<100x Avg Cmaxu)
• CCN(CC)CC#CCOC(=O)C(O)(c1ccccc1)C1CCCCC1 (stereo not shown) [oxybutynin] = -ve
• CCN(CC)C(=O)/C(C#N)=C/c1cc(O)c(O)c([N+](=O)[O-])c1 [entacapone] = -ve
• CC/C(=C(\c1ccccc1)c1ccc(OCCN(C)C)cc1)c1ccccc1 [tamoxifen] = -ve
• O=C(O)Cc1ccccc1Nc1c(Cl)cccc1Cl [diclofenac] = -ve
• CC(COc1ccccc1)N(CCCl)Cc1ccccc1 (stereo not shown) [phenoxybenzamine] = -ve
• O=C1CN(/N=C/c2ccc(-c3ccc([N+](=O)[O-])cc3)o2)C(O)=N1 [dantrolene] = +ve (<100x Avg Cmaxu)
• Nc1cc(N2CCCCC2)nc(N)[n+]1[O-] [minoxidil] = -ve
• Cc1ccc(C(=O)c2cc(O)c(O)c([N+](=O)[O-])c2)cc1 [tolcapone, reference compound] = -ve
• CN(C)C(=N)N=C(N)N [metformin] = -ve
• CS(=O)(=O)CCNCc1ccc(-c2ccc3ncnc(Nc4ccc(OCc5cccc(F)c5)c(Cl)c4)c3c2)o1 [lapatinib] = +ve (<100x Avg Cmaxu)
• CC(=O)Oc1ccccc1C(=O)O [acetylsalicylic acid] = +ve (<100x Avg Cmaxu)
• C[N+](C)(C)CC(=O)O [betaine, reference compound] = -ve
• CN(C)CCCN1c2ccccc2Sc2ccc(Cl)cc21 [chlorpromazine, reference compound] = +ve (<100x Avg Cmaxu)
• CC(C)(C)NCC(O)COc1cccc2c1CC(O)C(O)C2 (stereo not shown) [nadolol] = -ve
• CCCC(CCC)C(=O)O [valproic acid] = +ve (<100x Avg Cmaxu)
• N[C@@H](Cc1cc(I)c(Oc2ccc(O)c(I)c2)c(I)c1)C(=O)O [liothyronine] = -ve
• CCOC(=O)CN[C@@H](C(=O)N1CC[C@H]1C(=O)NCc1ccc(/C(N)=N\O)cc1)C1CCCCC1 [ximelagatran] = -ve
• CN1CCN(C2=Nc3cc(Cl)ccc3Nc3ccccc32)CC1 [clozapine] = +ve (<100x Avg Cmaxu)
• Cc1c(-c2ccccc2)oc2c(C(=O)OCCN3CCCCC3)cccc2c1=O [flavoxate] = -ve
• C1CCC(C(CC2CCCCN2)C2CCCCC2)CC1 (stereo not shown) [perhexiline] = +ve (<100x Avg Cmaxu)
• NC(=O)N1c2ccccc2C=Cc2ccccc21 [carbamazepine, reference compound] = +ve (<100x Avg Cmaxu)
• CC(C)C(=O)Nc1ccc([N+](=O)[O-])c(C(F)(F)F)c1 [flutamide, reference compound] = +ve (<100x Avg Cmaxu)
• CC(=O)Nc1ccc(O)cc1 [acetaminophen] = +ve (<100x Avg Cmaxu)
• O=C1CN(/N=C/c2ccc([N+](=O)[O-])o2)C(=O)N1 [nitrofurantoin, reference compound] = +ve (<100x Avg Cmaxu)
• CNC1(C)C2CCC(C2)C1(C)C (stereo not shown) [mecamylamine] = -ve
• Cc1ccc(N(CC2=NCCN2)c2cccc(O)c2)cc1 [phentolamine] = -ve
• N[C@@H]1[C@H]2CN(c3nc4c(cc3F)c(=O)c(C(=O)O)cn4-c3ccc(F)cc3F)C[C@@H]12 [trovafloxacin] = +ve (<100x Avg Cmaxu)

====

system: HepaRG spheroids; assay: Combined HCI (HCS) and cellular ATP 3D assay in HepaRG spheroids; details: HepaRG; all endpoints (ATP and HCS); cut-off <25x Avg Cmax
OBSERVED_PROPERTY: HepaRG <25x Avg Cmax All

* O=C(O)Cc1ccccc1Nc1c(Cl)cccc1Cl [diclofenac] | +ve
* O=C1CN(/N=C/c2ccc(-c3ccc([N+](=O)[O-])cc3)o2)C(O)=N1 [dantrolene] | +ve
* CCc1nn(CCCN2CCN(c3cccc(Cl)c3)CC2)c(=O)n1CCOc1ccccc1 [nefazodone, reference compound] | +ve
* CC(=O)N1CCN(c2ccc(OCC3COC(Cn4ccnc4)(c4ccc(Cl)cc4Cl)O3)cc2)CC1 (centres unmarked) [ketoconazole, reference compound] | +ve
* O=c1[nH]c(=O)n([C@@H]2O[C@H](CO)[C@@H](O)[C@@H]2F)cc1I [fialuridine] | +ve
* NNC(=O)c1ccncc1 [isoniazid, reference compound] | +ve
* Cc1ccc(C(=O)c2cc(O)c(O)c([N+](=O)[O-])c2)cc1 [tolcapone, reference compound] | +ve
* CN(C)C(=N)N=C(N)N [metformin] | -ve
* Cc1ccc(N(CC2=NCCN2)c2cccc(O)c2)cc1 [phentolamine] | -ve
* O=C1CN(/N=C/c2ccc([N+](=O)[O-])o2)C(=O)N1 [nitrofurantoin, reference compound] | +ve
* Clc1ccccc1CN1CCc2sccc2C1 [ticlopidine] | +ve
* CCc1ccc(CCOc2ccc(CC3SC(=O)NC3=O)cc2)nc1 (centres unmarked) [pioglitazone, reference compound] | +ve
* CN1CCN(C2=Nc3cc(Cl)ccc3Nc3ccccc32)CC1 [clozapine] | +ve
* CN(Cc1cnc2nc(N)nc(N)c2n1)c1ccc(C(=O)N[C@@H](CCC(=O)O)C(=O)O)cc1 [methotrexate, reference compound] | +ve
* CC(C)(C)NCC(O)COc1cccc2c1CC(O)C(O)C2 (centres unmarked) [nadolol] | -ve
* CCCC(CCC)C(=O)O [valproic acid] | +ve
* CC(=O)Oc1ccccc1C(=O)O [acetylsalicylic acid] | +ve
* COc1ccccc1Oc1c(NS(=O)(=O)c2ccc(C(C)(C)C)cc2)nc(-c2ncccn2)nc1OCCO [bosentan] | +ve
* CN(C)CCC(c1ccc(Cl)cc1)c1ccccn1 (centres unmarked) [chlorpheniramine] | -ve
* CNC1(C)C2CCC(C2)C1(C)C (centres unmarked) [mecamylamine] | -ve
* CCN(CC)C(=O)/C(C#N)=C/c1cc(O)c(O)c([N+](=O)[O-])c1 [entacapone] | +ve
* CN(C)CCCN1c2ccccc2Sc2ccc(Cl)cc21 [chlorpromazine, reference compound] | +ve
* Cc1cc2c(cc1CC(=O)c1sccc1S(=O)(=O)Nc1onc(C)c1Cl)OCO2 [sitaxsentan] | +ve
* CCN(CC)CCNC(=O)c1c(C)[nH]c(/C=C2\C(=O)Nc3ccc(F)cc32)c1C [sunitinib] | +ve
* CCOC(=O)c1ncn2c1CN(C)C(=O)c1cc(F)ccc1-2 [flumazenil, reference compound] | -ve
* CC[C@H]1OC(=O)[C@H](C)[C@@H](O[C@H]2C[C@@](C)(OC)[C@@H](O)[C@H](C)O2)[C@H](C)[C@@H](O[C@@H]2O[C@H](C)C[C@H](N(C)C)[C@H]2O)[C@](C)(O)C[C@@H](C)C(=O)[C@H](C)[C@@H](O)[C@]1(C)O [erythromycin] | +ve
* C[N+](C)(C)CC(=O)O [betaine, reference compound] | -ve
* C1CCC(C(CC2CCCCN2)C2CCCCC2)CC1 (centres unmarked) [perhexiline] | +ve
* Cn1cnc([N+](=O)[O-])c1Sc1ncnc2nc[nH]c12 [azathioprine] | +ve
* CC(COc1ccccc1)N(CCCl)Cc1ccccc1 (centres unmarked) [phenoxybenzamine] | -ve
* CC(C)C(=O)Nc1ccc([N+](=O)[O-])c(C(F)(F)F)c1 [flutamide, reference compound] | +ve
* [H]/N=C(/N)N[C@H]1[C@H](O)[C@@H](O)[C@H](O[C@@H]2O[C@@H](C)[C@](O)(C=O)[C@H]2O[C@@H]2O[C@@H](CO)[C@H](O)[C@@H](O)[C@@H]2NC)[C@@H](N/C(N)=N\[H])[C@@H]1O [streptomycin, reference compound] | -ve
* CC(=O)Nc1ccc(O)cc1 [acetaminophen] | +ve
* CCN(CC)CC#CCOC(=O)C(O)(c1ccccc1)C1CCCCC1 (centres unmarked) [oxybutynin] | -ve
* CS(=O)(=O)CCNCc1ccc(-c2ccc3ncnc(Nc4ccc(OCc5cccc(F)c5)c(Cl)c4)c3c2)o1 [lapatinib] | +ve
